Data provenance is ChEMBL document CHEMBL3988442.

# target desc: Ubiquitin-activating enzyme e1, putative (Leishmania donovani (strain BPK282A1))
# experiment summary: Leishmania donovani Ubiquitin Activating Enzyme (LdE1)
# Type: functional
# Design: scale not given: direction of the effect not stated beside the values
# run conditions: 30 µM
Measured potencies and affinities stand elsewhere.
property: Percent Effect
Remember to quote the unit after the number.

[[record]]
molecule = "Cc1nnn2c1COCC(CNC(=O)c1ccc3[nH]ccc3c1)C2 (centres undefined)"
reported = "13%"

[[record]]
molecule = "COc1cccc(C(=O)N2CCc3ncnc(C)c3CC2)c1"
reported = "2.74%"

[[record]]
molecule = "C[S+]([O-])c1nncn1CC(=O)c1cccc(Cl)c1 (centres undefined)"
reported = "16.2%"

[[record]]
molecule = "N#Cc1ccc(F)c(CN2CCCC2Cn2cccn2)c1 (centres undefined)"
reported = "-8.11%"

[[record]]
molecule = "Cc1nc(C)n(CC2CN(c3ccc(C#N)cn3)CCO2)n1 (centres undefined)"
reported = "10.5%"

[[record]]
molecule = "CCOCC1CN(S(C)(=O)=O)Cc2ncn(CC3CC3)c21 (centres undefined)"
reported = "13.5%"

[[record]]
molecule = "c1cnn(-c2ccc(CN3CCOC(Cn4cncn4)C3)cc2)c1 (centres undefined)"
reported = "12.7%"

[[record]]
molecule = "Cc1c(C)n(Cc2ccccn2)c2nc3c(c(N)c12)CCCC3"
reported = "-1.33%"

[[record]]
molecule = "O=C1CC2(CCCCC2)CC(=O)N1CC(O)COCc1ccc(Cl)cc1 (centres undefined)"
reported = "-10.8%"

[[record]]
molecule = "Cn1ccnc1CN1CCC2(CC1)CC(Oc1cccnc1)C2"
reported = "8%"


Prompt: Any idea what its Percent Effect is? The molecule is Cc1ncc(CNCC2CCCN2c2cccnn2)s1 (centres undefined)
Completion: 8.86%

Prompt: Item under review: `CC[C@@H](CO)NC(=O)c1coc(COc2ccc(OC)cc2)n1` . Reported Percent Effect?
Completion: 10.8%

Prompt: Can you look up the measured Percent Effect of `CNC(=O)c1cc2c(nc1NC(C)C)CCN(C(=O)NC(C)C)CC2` for me?
Completion: 0%

Prompt: Please look up its Percent Effect: `CCc1c(C(=O)NCC(=O)OCC2CC2)cnn1-c1ccc(C)cc1`
Completion: 22.8%

Prompt: What value of measured Percent Effect is listed for `CCS(=O)(=O)N1CCC(c2nnc(CN3CCOCC3)n2C)CC1` ?
Completion: 18.7%

Prompt: Fill blank: measured Percent Effect of the molecule `CC1CCN(C(=O)CN(Cc2ccco2)C2CC2)CC1` is ____.
Completion: 2.6%

Prompt: Requested field: Percent Effect. Item: `O=C(NCc1ccc(F)cc1)N1CCC(C2OCCO2)CC1`
Completion: 7.89%

Prompt: Entry `COc1ccc(CN2CCC(O)CC2)c(OC)c1` has what Percent Effect?
Completion: 0%
